B1: NP_002788.1 (parent)
chain: DGWIRVSSDNVADLHEKYSGSTP

- Variants of: B1
- Assay Comment: protein stability index of a GFP-peptide fusion (GPS, HEK-293T) (PSI 1-6); higher = more stable;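 further: lentivirally expressed fusion library, cells FACS-sorted into six equal-sized GFP/DsRed ratio bins, PSI computed from sequencing read fractions per bin weighted by bin number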
- Assay Conditions: c terminus: native
protein stability index reference

[[record]]
residue_change = "N10S"
attribute_measured = "protein stability index"
result = 2.17

[[record]]
residue_change = "S8A"
attribute_measured = "protein stability index"
result = 2.31

[[record]]
residue_change = "S21P"
attribute_measured = "protein stability index"
result = 3.5

[[record]]
residue_change = "L14Q"
attribute_measured = "protein stability index"
result = 2.89

[[record]]
residue_change = "P23S"
attribute_measured = "protein stability index"
result = 5

[[record]]
residue_change = "R5W"
attribute_measured = "protein stability index"
result = 2.41

[[record]]
residue_change = "G20E"
attribute_measured = "protein stability index"
result = 4.64

[[record]]
residue_change = "V6T"
attribute_measured = "protein stability index"
result = 3.15

[[record]]
residue_change = "L14H"
attribute_measured = "protein stability index"
result = 2.06

[[record]]
residue_change = "R5T"
attribute_measured = "protein stability index"
result = 2.54


Challenge: For G2D , what is its reported protein stability index?
Response given: 2.9

Challenge: What protein stability index value was documented for this variant, L14F ?
Response given: 1.96

Challenge: Any idea what protein stability index was measured for K17A ?
Response given: 3.52
